Tested On: T1, PKC-βI (purified isoform) (Homo sapiens (Human), UniProt P05771 2-671)
T1 construct: also called PKC-beta I
T1 sequence (P05771 2-671 limits assumed): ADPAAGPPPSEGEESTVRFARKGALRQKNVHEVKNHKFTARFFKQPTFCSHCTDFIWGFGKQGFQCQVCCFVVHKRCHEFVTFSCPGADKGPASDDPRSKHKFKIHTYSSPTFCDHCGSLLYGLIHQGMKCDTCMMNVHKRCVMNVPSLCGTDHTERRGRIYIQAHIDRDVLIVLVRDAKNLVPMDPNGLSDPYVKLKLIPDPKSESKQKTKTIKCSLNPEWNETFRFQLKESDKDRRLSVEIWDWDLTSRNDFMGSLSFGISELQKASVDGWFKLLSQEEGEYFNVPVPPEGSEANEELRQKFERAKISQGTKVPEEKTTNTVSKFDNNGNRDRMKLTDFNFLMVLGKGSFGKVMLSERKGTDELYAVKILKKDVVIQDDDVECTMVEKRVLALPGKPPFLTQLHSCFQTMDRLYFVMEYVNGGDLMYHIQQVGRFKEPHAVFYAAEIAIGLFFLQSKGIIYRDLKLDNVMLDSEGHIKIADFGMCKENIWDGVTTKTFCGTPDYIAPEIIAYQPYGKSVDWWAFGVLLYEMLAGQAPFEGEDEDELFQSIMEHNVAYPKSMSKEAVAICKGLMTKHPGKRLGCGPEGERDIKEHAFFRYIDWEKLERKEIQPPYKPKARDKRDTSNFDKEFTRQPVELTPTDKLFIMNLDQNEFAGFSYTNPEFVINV
Method Notes: competitive ELISA on purified PKC-βI vs anti-PKC-βI Ab; PRE 100 µM
Outcome Measure: binding capacity (%)
The reply should contain only the number, in %.

Below: 6 binders and their reported binding capacity (%).
RRKKGGKDFVVKR (Synthetic peptide, solid phase synthesis; termini given free; also called peptide PRE 1) [PRE 1]	13.9
Ac-KDANQLIGISI-NH2 (Synthetic peptide; also called peptide PRE 6) [PRE 6]	7.93
Ac-ISIGILQNADK-NH2 (Synthetic peptide (retro form of PRE 4); also called peptide PRE 7) [PRE 7]	0
Ac-KDAQNLI-NH2 (Synthetic peptide; also called peptide PRE 12; Ac-KDAQNLI-NH2) [PRE 12]	0
Ac-RDAQNLI-NH2 (Synthetic peptide; also called peptide PRE 13; Ac-RDAQNLI-NH2) [PRE 13]	0
Ac-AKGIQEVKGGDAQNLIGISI-NH2 (Synthetic peptide; also called peptide PRE 3) [PRE 3]	22.5

The record that follows has no binding capacity (%) shown yet.
Inquiry: Data request, read-out binding capacity (%), for Ac-KDAQNLIGISI-NH2 (Synthetic peptide; also called peptide PRE 4) [PRE 4]
Reply text: 15.7
